Tested on: S. aureus Newman;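 further: first quartile when negative (synergy) and third quartile when positive (antagonism)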
Test: Bliss interaction score (quartile over a dose matrix) (fitness difference); higher = more antagonism (negative = synergy)
Give Bliss interaction score for every item shown.
Respond numerically, and do not add a unit to the figure.

Query string: Recall the recorded Bliss interaction score for CO/N=C(\C(=O)N[C@@H]1C(=O)N2C(C(=O)O)=C(COC(N)=O)CS[C@H]12)c1ccco1 [Cefuroxime] + CCC[C@@H]1C[C@@H](C(=O)N[C@@H]([C@H]2O[C@H](SC)[C@H](O)[C@@H](O)[C@H]2O)[C@@H](C)O)N(C)C1 [Lincomycin] with S. aureus Newman and state it.
Result string: -0.0658

Query string: Recall the recorded Bliss interaction score for N#CC(C#N)=NNc1cccc(Cl)c1 [CCCP] + C[n+]1ccc(-c2cc[n+](C)cc2)cc1 [Paraquat] with S. aureus Newman and state it.
Result string: -0.0253

Query string: Recall the recorded Bliss interaction score for CN(C)[C@@H]1C(O)=C(C(N)=O)C(=O)[C@@]2(O)C(O)=C3C(=O)c4c(O)ccc(Cl)c4[C@@](C)(O)[C@H]3C[C@@H]12 [Clortetracycline] + C[n+]1ccc(-c2cc[n+](C)cc2)cc1 [Paraquat] with S. aureus Newman and state it.
Result string: -0.0418

----------
Tested on: S. aureus Newman;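 further: first quartile when negative (synergy) and third quartile when positive (antagonism)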
Assay: Bliss interaction score (quartile over a dose matrix) (fitness difference); higher = more antagonism (negative = synergy)
Conditions: main component drawn
metric: Bliss interaction score
Respond numerically, and do not add a unit to the figure.

Query string: What Bliss interaction score value was documented for this compound, O=C(O)c1cn(C2CC2)c2cc(N3CCNCC3)c(F)cc2c1=O [Ciprofloxacin] + CC(C1CCC(C(O1)OC2C(CC(C(C2O)OC3C(C(C(CO3)(C)O)NC)O)N)N)N)NC [Gentamicin] ?
Result string: 0.12

Query string: What Bliss interaction score value was documented for this compound, C[C@@H]1O[C@@H]1P(=O)(O)O [Fosfomycin] + CC(C1CCC(C(O1)OC2C(CC(C(C2O)OC3C(C(C(CO3)(C)O)NC)O)N)N)N)NC [Gentamicin] ?
Result string: 0.152

Query string: What Bliss interaction score value was documented for this compound, CC(=O)Oc1ccccc1C(=O)O [Acetylsalicylicacid] + CC[C@H](C)[C@H](N)C1=N[C@H](C(=O)N[C@@H](CC(C)C)C(=O)N[C@H](CCC(=O)O)C(=O)N[C@H](C(=O)N[C@H]2CCCCNC(=O)[C@H](CC(N)=O)NC(=O)[C@@H](CC(=O)O)NC(=O)[C@H](Cc3cnc[nH]3)NC(=O)[C@@H](Cc3ccccc3)NC(=O)[C@H]([C@@H](C)CC)NC(=O)[C@@H](CCCN)NC2=O)[C@@H](C)CC)CS1 [Bacitracin] ?
Result string: -0.0752

Query string: What Bliss interaction score value was documented for this compound, CN(C)[C@@H]1C(O)=C(C(N)=O)C(=O)[C@@]2(O)C(O)=C3C(=O)c4c(O)ccc(Cl)c4[C@@](C)(O)[C@H]3C[C@@H]12 [Clortetracycline] + CC(C1CCC(C(O1)OC2C(CC(C(C2O)OC3C(C(C(CO3)(C)O)NC)O)N)N)N)NC [Gentamicin] ?
Result string: 0.141

Query string: What Bliss interaction score value was documented for this compound, C[C@H]1c2cccc(O)c2C(=O)C2=C(O)[C@]3(O)C(=O)C(C(N)=O)=C(O)[C@@H](N(C)C)[C@@H]3[C@@H](O)[C@@H]21 [Doxycycline] + CC(C1CCC(C(O1)OC2C(CC(C(C2O)OC3C(C(C(CO3)(C)O)NC)O)N)N)N)NC [Gentamicin] ?
Result string: 0.0873

This collection of values is drawn from the supplement of paper PMC10627819.
